Target: IGF-1R (Homo sapiens)
Sequence (P08069 31-1367): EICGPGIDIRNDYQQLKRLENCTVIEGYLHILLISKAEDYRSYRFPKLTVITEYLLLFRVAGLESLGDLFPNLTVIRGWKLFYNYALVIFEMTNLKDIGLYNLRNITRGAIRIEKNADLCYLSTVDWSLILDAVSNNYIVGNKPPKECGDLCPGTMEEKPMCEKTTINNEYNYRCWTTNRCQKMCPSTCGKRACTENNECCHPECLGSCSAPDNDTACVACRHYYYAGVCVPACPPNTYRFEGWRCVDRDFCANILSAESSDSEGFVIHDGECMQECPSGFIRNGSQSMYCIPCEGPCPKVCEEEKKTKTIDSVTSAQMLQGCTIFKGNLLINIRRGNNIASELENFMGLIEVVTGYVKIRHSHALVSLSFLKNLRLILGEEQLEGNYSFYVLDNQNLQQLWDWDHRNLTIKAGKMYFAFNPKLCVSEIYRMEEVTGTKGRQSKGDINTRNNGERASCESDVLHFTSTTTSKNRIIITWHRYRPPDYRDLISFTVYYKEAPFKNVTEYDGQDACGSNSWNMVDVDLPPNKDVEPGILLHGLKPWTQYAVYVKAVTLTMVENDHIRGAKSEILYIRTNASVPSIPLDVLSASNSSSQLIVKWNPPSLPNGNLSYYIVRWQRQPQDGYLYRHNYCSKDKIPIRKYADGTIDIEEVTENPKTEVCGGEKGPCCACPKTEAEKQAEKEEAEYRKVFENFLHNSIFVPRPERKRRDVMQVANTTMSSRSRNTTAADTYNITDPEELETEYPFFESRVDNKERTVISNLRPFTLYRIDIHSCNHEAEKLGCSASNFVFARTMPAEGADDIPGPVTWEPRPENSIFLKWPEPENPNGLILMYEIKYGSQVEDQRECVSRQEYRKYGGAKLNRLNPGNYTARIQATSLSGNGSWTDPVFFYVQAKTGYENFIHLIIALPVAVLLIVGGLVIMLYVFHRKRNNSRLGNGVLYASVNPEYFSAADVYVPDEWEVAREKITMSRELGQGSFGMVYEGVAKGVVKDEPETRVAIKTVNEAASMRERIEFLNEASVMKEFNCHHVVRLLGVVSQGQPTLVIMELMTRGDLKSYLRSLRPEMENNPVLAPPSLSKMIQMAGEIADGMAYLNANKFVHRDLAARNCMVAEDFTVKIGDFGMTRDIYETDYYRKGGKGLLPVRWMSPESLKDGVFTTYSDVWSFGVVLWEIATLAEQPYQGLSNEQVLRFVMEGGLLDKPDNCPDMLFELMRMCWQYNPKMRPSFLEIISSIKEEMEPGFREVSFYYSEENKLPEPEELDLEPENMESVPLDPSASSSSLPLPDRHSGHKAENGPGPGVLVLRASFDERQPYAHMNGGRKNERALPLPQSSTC
Assay: Cellular IGF-1R assay: capture ELISA (MSD) of receptor phosphorylation in Hek293 cells
Conditions: Hek293-IGF1R cells, 1 h pre-incubation, 10 min IGF stimulation, pIGF1R capture ELISA
Parameter log10(IC50): see the listing below.
measuredQuantity: log10(IC50) (log10 of the value in nM)

[[record]]
compound = "Nc1ncnc2c1c(-c1cccc(OCC34CCC(CC3)O4)c1)cn2[C@H]1C[C@@H](CN2CCSCC2=O)C1 [Example 106]"
measuredquantity = "log10(IC50)"
obsvalue = 1.79

[[record]]
compound = "Nc1ncnc2c1c(-c1cccc(OCC34CCC(CC3)O4)c1)cn2C1CCC(CN2CCS(=O)(=O)CC2)CC1 (stereo not shown) [Example 111]"
measuredquantity = "log10(IC50)"
obsvalue = 1.99

[[record]]
compound = "CN1CCN([C@H]2CC[C@@H](n3cc(-c4cccc(OCC5CCC(C)(C)O5)c4)c4c(N)ncnc43)CC2)CC1 (relative stereo) [Example 63]"
measuredquantity = "log10(IC50)"
obsvalue = 1.79

[[record]]
compound = "CC(C)C(=O)NCC1CC(n2cc(-c3cccc(OCC45CCC(CC4)O5)c3)c3c(N)ncnc32)C1 (stereo not shown) [Example 164]"
measuredquantity = "log10(IC50)"
obsvalue = 2.16

[[record]]
compound = "CCNC(=O)NCC1CC(n2cc(-c3cccc(OCC45CCC(CC4)O5)c3)c3c(N)ncnc32)C1 (stereo not shown) [Example 163]"
measuredquantity = "log10(IC50)"
obsvalue = 2.18

[[record]]
compound = "Nc1ncnc2c1c(-c1cccc(OCC34CCC(CC3)O4)c1)cn2[C@H]1C[C@@H](CN2CCC(O)CC2)C1 (relative stereo) [Example 184]"
measuredquantity = "log10(IC50)"
obsvalue = 0.95

[[record]]
compound = "CN1CCN([C@H]2CC[C@@H](n3cc(-c4cccc(OC[C@@H]5CCC(C)(C)O5)c4)c4c(N)ncnc43)CC2)CC1 [Example 119]"
measuredquantity = "log10(IC50)"
obsvalue = 1.56


###

Target: IGF-1R (Homo sapiens)
Test: Cellular IGF-1R assay: capture ELISA (MSD) of receptor phosphorylation in Hek293 cells
Conditions: Hek293-IGF1R cells, 1 h pre-incubation, 10 min IGF stimulation, pIGF1R capture ELISA
Description: In this assay the activity of the compounds of the invention against Insulin-like growth factor I (IGF-I) induced autophosphorylation of the IGF-IR was determined. The assay was conducted as follows: Compound-mediated inhibition of IGF1R and INSR phosphorylation in Hek293 cells transduced with the corresponding receptors was assessed in a capture ELISA format using the MSD (Meso Scale Discovery) platform. […] IC50 values [nM] were determined using 4-parametric curve-fitting (XLfit software, V4.3.2). […]
pIC50: −log10 of the molar value.
Parameter pIC50: see the listing below.
measuredQuantity: pIC50

[[record]]
compound = "NC(=O)[C@@H]1COCCN1C[C@H]1C[C@@H](n2cc(-c3cccc(OCC4CCCCO4)c3)c3c(N)ncnc32)C1 (stereo partly shown) [Example 96]"
resultcomparator = "="
obsvalue = 7.23

[[record]]
compound = "CS(=O)(=O)CCN1CCC(n2cc(-c3cccc(OCC45CCC(CC4)O5)c3)c3c(N)ncnc32)CC1 [Example 114]"
resultcomparator = "="
obsvalue = 6.52

[[record]]
compound = "CN1CCN([C@H]2C[C@@H](n3cc(-c4cccc(OCC56CCC(CC5)O6)c4)c4c(N)ncnc43)C2)CC1=O (relative stereo) [Example 195]"
resultcomparator = "="
obsvalue = 6.41

[[record]]
compound = "CC1(C)CCC(COc2cccc(-c3cn([C@H]4C[C@@H](CN5CCS(=O)(=O)CC5)C4)c4ncnc(N)c34)c2)O1 (single isomer, unassigned) [Example 66]"
resultcomparator = ">"
obsvalue = 8.40

[[record]]
compound = "Nc1ncnc2c1c(-c1cccc(OCC3CCCCO3)c1)cn2[C@H]1C[C@@H](CN2CCC[C@@H]2C(=O)O)C1 (stereo partly shown) [Example 90]"
resultcomparator = "="
obsvalue = 6.27

[[record]]
compound = "Nc1ncnc2c1c(-c1cccc(OCC34CCC(CC3)O4)c1)cn2C1CC(CNC(CO)CO)C1 (stereo not shown) [Example 168]"
resultcomparator = "="
obsvalue = 6.96


###

Molecular target: UniProt:P08069
Assay: Cellular IGF-1R assay: capture ELISA (MSD) of receptor phosphorylation in Hek293 cells
Conditions: Hek293-IGF1R cells, 1 h pre-incubation, 10 min IGF stimulation, pIGF1R capture ELISA
pIC50: −log10 of the molar value.
Parameter pIC50: see the listing below.
measuredQuantity: pIC50

[[record]]
compound = "Nc1ncnc2c1c(-c1cccc(OCC3CCCCO3)c1)cn2[C@H]1C[C@@H](CN2CCC(F)(F)CC2)C1 (relative stereo)"
measuredon = "UniProt:P08069"
obsvalue = 6.39

[[record]]
compound = "Nc1ncnc2c1c(-c1cccc(OCC34CCC(CC3)O4)c1)cn2[C@H]1CC[C@@H](CN2CCNC(=O)C2)CC1"
measuredon = "UniProt:P08069"
obsvalue = 6.49

[[record]]
compound = "Nc1ncnc2c1c(-c1cccc(OCC3CCCCO3)c1)cn2[C@H]1C[C@H](CN2CC(F)C2)C1 (relative stereo)"
measuredon = "UniProt:P08069"
obsvalue = 6.30

[[record]]
compound = "Nc1ncnc2c1c(-c1cccc(OCC34CCC(CC3)O4)c1)cn2[C@H]1CC[C@@H](NC(=O)C2CCC2)CC1"
measuredon = "UniProt:P08069"
obsvalue = 7.27


###

Molecular target: IGF-1R (Homo sapiens)
Experiment: Cellular IGF-1R assay: capture ELISA (MSD) of receptor phosphorylation in Hek293 cells
Settings: Hek293-IGF1R cells, 1 h pre-incubation, 10 min IGF stimulation, pIGF1R capture ELISA
Procedure: In this assay the activity of the compounds of the invention against Insulin-like growth factor I (IGF-I) induced autophosphorylation of the IGF-IR was determined. The assay was conducted as follows: Compound-mediated inhibition of IGF1R and INSR phosphorylation in Hek293 cells transduced with the corresponding receptors was assessed in a capture ELISA format using the MSD (Meso Scale Discovery) platform. […] IC50 values [nM] were determined using 4-parametric curve-fitting (XLfit software, V4.3.2). […]
measuredQuantity: IC50 (µM)

[[record]]
compound = "CN1CCN([C@H]2CC[C@@H](n3cc(-c4cccc(OC[C@H]5CCC(C)(C)O5)c4)c4c(N)ncnc43)CC2)CC1"
measuredon = "IGF-1R (Homo sapiens)"
measuredquantity = "IC50"
unitdescriptor = "µM"
obsvalue = 0.149

[[record]]
compound = "Nc1ncnc2c1c(-c1cccc(OCC34CCC(CC3)O4)c1)cn2C1CC(O)(CN2CCC(O)CC2)C1 (stereo not shown)"
measuredon = "IGF-1R (Homo sapiens)"
measuredquantity = "IC50"
unitdescriptor = "µM"
obsvalue = 0.063

[[record]]
compound = "NC[C@H]1CC[C@@H](n2cc(-c3cccc(OCC45CCC(CC4)O5)c3)c3c(N)ncnc32)CC1"
measuredon = "IGF-1R (Homo sapiens)"
measuredquantity = "IC50"
unitdescriptor = "µM"
obsvalue = 0.227

[[record]]
compound = "CC(C)C(=O)N[C@H]1CC[C@@H](n2cc(-c3cccc(OCC45CCC(CC4)O5)c3)c3c(N)ncnc32)CC1"
measuredon = "IGF-1R (Homo sapiens)"
measuredquantity = "IC50"
unitdescriptor = "µM"
obsvalue = 0.231

[[record]]
compound = "CC1(C)CCC(COc2cccc(-c3cn(C4CC(CN5CC(F)C5)C4)c4ncnc(N)c34)c2)O1 (stereo not shown) [Example 47]"
measuredon = "IGF-1R (Homo sapiens)"
measuredquantity = "IC50"
unitdescriptor = "µM"
obsvalue = 0.034

[[record]]
compound = "Nc1ncnc2c1c(-c1cccc(OCC3CCCO3)c1)cn2[C@H]1C[C@@H](CN2CCS(=O)(=O)CC2)C1 (relative stereo)"
measuredon = "IGF-1R (Homo sapiens)"
measuredquantity = "IC50"
unitdescriptor = "µM"
obsvalue = 0.234

[[record]]
compound = "NC(=O)[C@@H]1[C@H](O)CCN1C[C@H]1C[C@H](n2cc(-c3cccc(OCC4CCCO4)c3)c3c(N)ncnc32)C1 (relative stereo)"
measuredon = "IGF-1R (Homo sapiens)"
measuredquantity = "IC50"
unitdescriptor = "µM"
obsvalue = 0.108

[[record]]
compound = "Nc1ncnc2c1c(-c1cccc(OCC3CCCO3)c1)cn2[C@H]1C[C@H](CN2CCS(=O)(=O)CC2)C1 (relative stereo)"
measuredon = "IGF-1R (Homo sapiens)"
measuredquantity = "IC50"
unitdescriptor = "µM"
obsvalue = 0.316

[[record]]
compound = "Nc1ncnc2c1c(-c1cccc(OCC34CCC(CC3)O4)c1)cn2[C@H]1CC[C@@H](CN2CCSCC2)CC1"
measuredon = "IGF-1R (Homo sapiens)"
measuredquantity = "IC50"
unitdescriptor = "µM"
obsvalue = 0.036


###

Parameter IC50: see the listing below.
Target: IGF-1R (Homo sapiens)
Test: Cellular IGF-1R assay: capture ELISA (MSD) of receptor phosphorylation in Hek293 cells
Conditions: Hek293-IGF1R cells, 1 h pre-incubation, 10 min IGF stimulation, pIGF1R capture ELISA
measuredQuantity: IC50

[[record]]
molecule = "CC1(C)CCC(COc2cccc(-c3cn([C@H]4C[C@@H](CN5CC[C@@H](F)C5)C4)c4ncnc(N)c34)c2)O1 (relative stereo) [Example 52]"
obsvalue = "0.037 µM"

[[record]]
molecule = "NC(=O)C1C2CCC(C2)N1CC1CC(n2cc(-c3cccc(OCC4CCCCO4)c3)c3c(N)ncnc32)C1 (stereo not drawn) [Example 95]"
obsvalue = "0.219 µM"

[[record]]
molecule = "CN1CCN([C@H]2CC[C@H](n3cc(-c4cccc(OCC5CCC(C)(C)O5)c4)c4c(N)ncnc43)CC2)CC1 (relative stereo) [Example 62]"
obsvalue = "0.314 µM"


Taken from patent US20120165310A1.
